Target: GlcNAc(b1-4)[GlcNAc(b1-6)]GalNAc
Assay: glycan array binding signal (z-score within array); higher = stronger binding
Conditions: glycan notation: IUPAC condensed, linker removed
Shown is part of a subset that was picked to be rich in the strongest signals.
Readout: glycan array binding signal (z-score)
Reply briefly: the number, and no unit.

Qu. Write down glycan array binding signal (z-score) measured for item RsaA-N-term (Caulobacter crescentus), P35828 (protein) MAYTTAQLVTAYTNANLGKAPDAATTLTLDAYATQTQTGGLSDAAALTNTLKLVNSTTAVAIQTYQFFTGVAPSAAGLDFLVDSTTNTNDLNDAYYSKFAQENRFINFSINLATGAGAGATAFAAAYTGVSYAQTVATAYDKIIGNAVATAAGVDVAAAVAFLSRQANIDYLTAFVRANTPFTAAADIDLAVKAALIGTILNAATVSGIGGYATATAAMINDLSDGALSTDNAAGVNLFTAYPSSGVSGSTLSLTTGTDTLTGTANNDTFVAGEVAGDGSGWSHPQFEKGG
Ans. -0.221
